Readout: melting point

molecule=c1ccc(COc2ccc(-c3ccc4c(c3)COC3(CCN(C5CCC5)CC3)O4)cn2)cc1 result="139 to 141 °C"
molecule=c1csc(-c2ccc3c(c2)COC2(CCN(C4CCC4)CC2)O3)n1 result="181 to 183 °C"
molecule=CS(=O)(=O)c1ccccc1C(=O)Nc1ccc2c(c1)COC1(CCN(C3CCC3)CC1)O2 result="143 to 145 °C"
molecule=Cc1n[nH]c(C)c1-c1ccc2c(c1)COC1(CCN(C3CCC3)CC1)O2 result="110 to 112 °C"
molecule=O=C(c1ccc(-c2ccc3c(c2)COC2(CCN(C4CCC4)CC2)O3)cc1)N1CC[C@H](F)C1 result="184 to 186 °C"
molecule=CO[C@H]1CCN(C(=O)c2ccc(-c3ccc4c(c3)CCC3(CCN(C5CCC5)CC3)O4)cn2)C1 result="249 to 251 °C"
molecule=COC(=O)/C=C/c1ccc2c(c1)COC1(CCN(C3CCC3)CC1)O2 result="131 to 133 °C"
molecule=O=c1[nH]cc(-c2ccc3c(c2)COC2(CCN(C4CCC4)CC2)O3)c2ccccc12 result="202 to 204 °C"
molecule="O=c1ccc(-c2ccc3c(c2)COC2(CCN(C4CC(CO)C4)CC2)O3)c[nH]1 (stereo not shown)" result="228 to 230 °C"
molecule=CNC(=O)c1ccc(-c2ccc3c(c2)COC2(CCN(C4CCC4)CC2)O3)c(Cl)c1 result="211 to 213 °C"
molecule=O=C(Nc1ccc2c(c1)COC1(CCN(C3CCC3)CC1)O2)c1ccnnc1 result="206 to 207 °C"
molecule=O=C(c1ccc(-c2ccc3c(c2)CCC2(CCN(C4CCC4)CC2)O3)cc1)N1CCC(O)CC1 result="90.4 to 92.6 °C"
molecule="O=C1CCC(c2ccc3c(c2)CCC2(CCN(C4CCC4)CC2)O3)CN1 (stereo not shown)" result="292 to 294 °C"
molecule=COc1cc(C)c(-c2ccc3c(c2)COC2(CCN(C4CCC4)CC2)O3)c(C)n1 result="149.8 to 150.4 °C"
molecule=O=C(Nc1ccccc1)Nc1ccc2c(c1)COC1(CCN(C3CCC3)CC1)O2 result="229 to 231 °C"
molecule=O=C(C1CCN(c2ccc3c(c2)CCC2(CCN(C4CCC4)CC2)O3)CC1)N1CCOCC1 result="165 to 167 °C"
molecule=Cc1cc(C(=O)NC2CCOCC2)ccc1-c1ccc2c(c1)COC1(CCN(C3CCC3)CC1)O2 result="184 to 185 °C"
molecule=Cc1cc2c(cc1-c1ccc(=O)[nH]c1)COC1(CCN(C3CCC3)CC1)O2 result="239 to 240 °C"
molecule="OC1CCC(c2ccc3c(c2)COC2(CCN(C4CCC4)CC2)O3)CC1 (stereo not shown) [Example 498]" result="150 to 153 °C"
molecule=c1ccc(Nc2ccc3c(c2)OC2(CCN(C4CCC4)CC2)O3)cc1 result="238 to 240 °C"
molecule="CN(C)C(=O)N1CCN(c2ccc3c(c2)CCC2(CCN(C4CCC4)C2)O3)CC1 (stereo not shown)" result="231 to 233 °C"
molecule=COCCNC(=O)c1c(F)cc(-c2ccc3c(c2)COC2(CCN(C4CCC4)CC2)O3)cc1F result="125 to 126.3 °C"
molecule=Cc1ncoc1C(=O)Nc1ccc2c(c1)CCC1(CCN(C3CCC3)CC1)O2 result="169 to 171 °C"
molecule=CNC(=O)c1ccc(-c2ccc3c(c2)CCC2(CCN(C4CCC4)CC2)O3)cn1 result="67 to 69 °C"
molecule=FC(F)(F)c1ncccc1-c1ccc2c(c1)COC1(CCN(C3CCC3)CC1)O2 result="190 to 192 °C"
